- ASSAY OVERVIEW: Acute toxicity in the rat after oral and intraperitoneal administration
- Set-up: species or system Sprague-Dawley rats
- CONDITION NOTES: in vivo, ip, intraperitoneal route, 14 days observation, printed with (LD₂₀), read-out: LD₅₀
READOUT: LD50 at 336 h

Entry CC(C)Oc1ccc2c(=O)c3ccc(OC(C)C)cc3oc2c1 [I (R=iPr; R₁=OiPr), 3,6-Di(isopropoxy)xanthone] needs its LD50 at 336 h filled in; supply it.
> 1000 mg/kg

====

- ASSAY OVERVIEW: Acute toxicity in the rat after oral and intraperitoneal administration
- Set-up: species or system Sprague-Dawley rats
- CONDITION NOTES: in vivo, oral administration, 14 days observation, printed with (LD₀), read-out: LD₅₀
READOUT: LD50 at 336 h

Entry CC(C)Oc1ccc2c(=O)c3ccc(OC(C)C)cc3oc2c1 [I (R=iPr; R₁=OiPr), 3,6-Di(isopropoxy)xanthone] needs its LD50 at 336 h filled in; supply it.
> 4000 mg/kg

The measured values listed here are drawn from patent EP0586960B1.
